# Tested on: NCI-H526 (Small Cell Lung Carcinoma);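 also: after 72 h of two-drug dosing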
# assay_explanation: Bliss excess, mean over the matrix (fraction); higher = more synergy
observed_property: Bliss excess
Keep it simple and answer with nothing but the number.

- CN(CCO)CC[C@H](CSc1ccccc1)Nc1ccc(S(=O)(=O)NC(=O)c2ccc(N3CCC([C@@H](O)c4ccccc4-c4ccc(Cl)cc4)CC3)cc2)cc1S(=O)(=O)C(F)(F)F [AZD4320] + CC(=O)O[C@H]1C(=O)[C@@]2(C)[C@H]([C@H](OC(=O)c3ccccc3)[C@]3(O)C[C@H](OC(=O)[C@H](O)[C@@H](NC(=O)c4ccccc4)c4ccccc4)C(C)=C1C3(C)C)[C@]1(OC(C)=O)CO[C@@H]1C[C@@H]2O [Paclitaxel] (first compound max 1 µM, 7x7, partner max 3 µM): 0.0193
- CC1(C)CCC(CN2CCN(c3ccc(C(=O)NS(=O)(=O)c4ccc(NCC5CCOCC5)c([N+](=O)[O-])c4)c(Oc4cnc5[nH]ccc5c4)c3)CC2)=C(c2ccc(Cl)cc2)C1 [Venetoclax] + CS(=O)(=O)CCNCc1ccc(-c2ccc3ncnc(Nc4ccc(OCc5cccc(F)c5)c(Cl)c4)c3c2)o1 [Lapatinib] (first compound max 1 µM, 7x7, partner max 10 µM): 0.105

The record that follows has no Bliss excess shown yet.
input: What value of Bliss excess has been recorded for this entry: COc1cccc(OCCCN)c1-c1cc(Nc2cnc(C#N)cn2)n[nH]1 [Prexasertib] + C[C@@H]1COCCN1C2=NC(=NC(=C2)C3(CC3)[S@](=N)(=O)C)C4=C5C=CNC5=NC=C4 [AZD6738] (first compound max 1 µM, 7x7, partner max 10 µM)
output: 0.0283

---

# Tested on: NCI-H661 (Non-Small Cell Lung Carcinoma)
# assay_explanation: combination Emax (second highest fraction inhibited in the dose matrix, 72 h); higher = more inhibition; extreme values may be limits of the assay
combination Emax listing for selected compounds.

• NC1(C(=O)N[C@@H](CCO)c2ccc(Cl)cc2)CCN(c2ncnc3[nH]ccc23)CC1 [Capivasertib] + Cn1cnc2c(F)c(Nc3ccc(Br)cc3Cl)c(C(=O)NOCCO)cc21 [Selumetinib] (first compound max 10 µM, 7x7, partner max 10 µM) = 0.427
• COc1cccc(OCCCN)c1-c1cc(Nc2cnc(C#N)cn2)n[nH]1 [Prexasertib] + C=CCn1c(=O)c2cnc(Nc3ccc(N4CCN(C)CC4)cc3)nc2n1-c1cccc(C(C)(C)O)n1 [AZD1775] (first compound max 1 µM, partner max 1 µM) = 0.788
• CC1(C)CCC(CN2CCN(c3ccc(C(=O)NS(=O)(=O)c4ccc(NCC5CCOCC5)c([N+](=O)[O-])c4)c(Oc4cnc5[nH]ccc5c4)c3)CC2)=C(c2ccc(Cl)cc2)C1 [Venetoclax] + C=CCn1c(=O)c2cnc(Nc3ccc(N4CCN(C)CC4)cc3)nc2n1-c1cccc(C(C)(C)O)n1 [AZD1775] (first compound max 1 µM, partner max 1 µM) = 0.63

The record that follows has no combination Emax shown yet.
input: What value of combination Emax has been recorded for this entry: CC1(C)CCC(CN2CCN(c3ccc(C(=O)NS(=O)(=O)c4ccc(NCC5CCOCC5)c([N+](=O)[O-])c4)c(Oc4cnc5[nH]ccc5c4)c3)CC2)=C(c2ccc(Cl)cc2)C1 [Venetoclax] + CCN(CCO)CCCOc1ccc2c(Nc3cc(CC(=O)Nc4cccc(F)c4)[nH]n3)ncnc2c1 [AZD2811] (first compound max 1 µM, 7x7, partner max 1 µM)
output: 0.143
